Items are presented alongside their recorded average O3 consumption.
Experiment: Particle generation and ozone consumption by type of terpene in 26.5 m^3 test chamber
Assay type: physicochemical
Conditions: terpene concentration 1 mg/m^3; 26.5 m^3 test chamber; initial ozone 100 ppb
Procedure: Some further measurements were done with setups as describe above. Data in relation to particle generation and ozone consumption as function of type of terpene were determined. […] It is clear that e.g. eucalyptol and thymol is most desired amongst these four options.
metric name: average O3 consumption (%)

| compound | metric name | numeric result |
| --- | --- | --- |
| CC12CCC(CC1)C(C)(C)O2 [Eucalyptol, Eucalyptol (1,8-cineol)] | average O3 consumption | 2 |
| Cc1ccc(C(C)C)c(O)c1 [Thymol] | average O3 consumption | 2 |
| CC(C)=CCC/C(C)=C/CO [Geraniol] | average O3 consumption | 54 |
| C=CC(C)(O)CCC=C(C)C (stereo not drawn) [Linalool] | average O3 consumption | 44 |
| C=CCc1ccc(O)c(OC)c1 [Eugenol] | average O3 consumption | 15 |
| C=C(C)[C@H]1CC=C(C)CC1 [Limonene] | average O3 consumption | 31 |
